B1: GLTSCR2 (parent)
chain: LARRRRRRQARREAEADKPRRLGR

Variants of: B1
Assay: protein stability index of a GFP-peptide fusion (GPS, HEK-293T) (PSI 1-6); higher = more stable;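 further: lentivirally expressed fusions sorted by FACS into six bins by GFP to DsRed ratio, PSI derived from sequencing read proportions per bin multiplied by bin number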
Conditions: c terminus: a fixed tail appended
MEASURE NAME: protein stability index
Please state the value as a number alone, without comment.

[ask] Bench note: what protein stability index did LARRRRRRQARREAEAHKPRRLGR [D17H] show?
[reply] 4.81

[ask] Same thing, different variant: LARRRRRRQARRENEADKPRRLGR [A14N]
[reply] 4.44

[ask] Same thing, different variant: LARRRRRRQARREAPADKPRRLGR [E15P]
[reply] 4.44

[ask] Same thing, different variant: LARRRRRRQAAREAEADKPRRLGR [R11A]
[reply] 4.53

[ask] Same thing, different variant: LARRRRRRQATREAEADKPRRLGR [R11T]
[reply] 5.06

[ask] Same thing, different variant: LARRRRRRQARREPEADKPRRLGR [A14P]
[reply] 4.97

[ask] Same thing, different variant: LARYRRRRQARREAEADKPRRLGR [R4Y]
[reply] 4.16

[ask] Same thing, different variant: LARRERRRQARREAEADKPRRLGR [R5E]
[reply] 5.13

[ask] Same thing, different variant: LARRRRRRQARREMEADKPRRLGR [A14M]
[reply] 4.34

[ask] Same thing, different variant: IARRRRRRQARREAEADKPRRLGR [L1I]
[reply] 4.9

[ask] Same thing, different variant: LARQRRRRQARREAEADKPRRLGR [R4Q]
[reply] 4.18
